Tested on: HCT116 WT cells
Assay: HCT116 proliferation assay, WT cells (CellTiter-Glo, 6 days)
Format: cell-based
Settings: Homo sapiens, HCT-116, 144 h, read-out: Prolif_HCT116-WT IC50
pIC50: −log10 of the molar value.
MEASURED_PARAMETER: pIC50

[P] C[C@H](c1ncccn1)N(Cc1ccc(C2CC2)nn1)C(=O)c1ccc2nc(N)c(I)cc2c1 [Example 763]
[Q] Cc1cc2cc(C(=O)N(Cc3ccc(Cl)cn3)[C@H](C)c3ncccc3F)ccc2nc1N [Example 401]
Exam item: Decide: P or Q , by lowest recorded pIC50. Answer by stating the label of the chosen item.
Marked response: P

Source: patent US20230159510A1
